Values compiled from ChEMBL document CHEMBL1156929.

target: Cytochrome P450 11B1, mitochondrial (Homo sapiens); assay: Inhibition of human CYP11B1 expressed in chinese hamster V79 cells; type: cell-based; settings: read-out: IC50
Sequence (P15538 whole entry): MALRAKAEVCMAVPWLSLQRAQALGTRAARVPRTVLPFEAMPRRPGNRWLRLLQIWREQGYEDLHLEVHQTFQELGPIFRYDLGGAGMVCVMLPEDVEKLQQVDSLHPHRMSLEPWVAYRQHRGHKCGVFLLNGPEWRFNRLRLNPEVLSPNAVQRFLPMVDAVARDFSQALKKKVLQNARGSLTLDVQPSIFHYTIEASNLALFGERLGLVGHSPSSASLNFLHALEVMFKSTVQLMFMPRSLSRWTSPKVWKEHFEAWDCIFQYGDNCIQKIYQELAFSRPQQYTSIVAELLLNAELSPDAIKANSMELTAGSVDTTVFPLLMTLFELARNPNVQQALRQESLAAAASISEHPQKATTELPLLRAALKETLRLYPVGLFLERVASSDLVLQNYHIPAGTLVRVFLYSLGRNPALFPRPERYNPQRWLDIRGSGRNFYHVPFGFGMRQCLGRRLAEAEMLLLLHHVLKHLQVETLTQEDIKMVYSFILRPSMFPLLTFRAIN
Quick reference: IC50 of the listed items.

Compound: N#Cc1cccc(Cn2ccnc2)c1
Measure Unit: µM
Bound Sign: >
IC50: 1
--
Compound: c1ccc(Cn2cncc2-c2ccccc2)cc1
Measure Unit: µM
Bound Sign: =
IC50: 0.0048
--
Compound: N#Cc1ccc(Cn2cncc2CCCO)cc1
Measure Unit: µM
Bound Sign: =
IC50: 0.048
--
Compound: COc1ccc(Cn2cncc2-c2ccccc2)cc1
Measure Unit: µM
Bound Sign: =
IC50: 0.011
--
Compound: N#Cc1ccc(Cn2cncc2Br)cc1
Measure Unit: µM
Bound Sign: =
IC50: 0.073
--
Compound: COC(=O)CCc1cncn1Cc1ccc(F)cc1
Measure Unit: µM
Bound Sign: =
IC50: 0.104
--
Compound: OCCCc1cncn1Cc1ccc(Br)cc1
Measure Unit: µM
Bound Sign: =
IC50: 0.018
--
Compound: OCc1ccc(Cn2ccnc2)cc1
Measure Unit: µM
Bound Sign: =
IC50: 0.695
--
Compound: c1ccc(Cn2ccnc2)cc1 [BENZYLIMIDAZOLE]
Measure Unit: µM
Bound Sign: =
IC50: 0.709
--
Compound: Nc1ccc(Cn2ccnc2)cc1
Measure Unit: µM
Bound Sign: =
IC50: 0.236
--
Compound: N#Cc1ccc(Cn2cncc2-c2ccncc2)cc1
Measure Unit: µM
Bound Sign: =
IC50: 0.307
--
Compound: OCCCc1cncn1Cc1ccccc1
Measure Unit: µM
Bound Sign: =
IC50: 0.181
--
Compound: COC(=O)CCc1cncn1Cc1ccccc1
Measure Unit: µM
Bound Sign: =
IC50: 0.326
--
Compound: Brc1ccc(Cn2cncc2-c2ccccc2)cc1
Measure Unit: µM
Bound Sign: =
IC50: 0.007
--
Compound: OCCCc1cncn1Cc1ccc(Cl)cc1
Measure Unit: µM
Bound Sign: =
IC50: 0.044
--
Compound: Brc1ccc(Cn2ccnc2)cc1
Measure Unit: µM
Bound Sign: =
IC50: 0.211
--
Compound: N#Cc1ccc(Cn2cncc2-c2ccc(F)cc2)cc1
Measure Unit: µM
Bound Sign: =
IC50: 0.027
--
Compound: Fc1ccc(Cn2ccnc2)cc1
Measure Unit: µM
Bound Sign: =
IC50: 0.494
--
Compound: Cc1ccc(-c2cncn2Cc2ccc(C#N)cc2)cc1
Measure Unit: µM
Bound Sign: =
IC50: 0.13
